- Target entity: Neu5Ac(a2-3)Gal(b1-4)GlcNAc(b1-2)Man(a1-3)[Neu5Ac(a2-6)Gal(b1-4)GlcNAc(b1-2)Man(a1-6)]Man(b1-4)GlcNAc(b1-4)GlcNAc
- Procedure details: glycan array binding signal (z-score within array); higher = stronger binding
- Reported conditions: glycan notation: IUPAC condensed, linker removed
This excerpt belongs to a sample that is enriched for the strongest signals.
Reported metric: glycan array binding signal (z-score)

- Binder: "Epa13 (Candida glabrata) (protein) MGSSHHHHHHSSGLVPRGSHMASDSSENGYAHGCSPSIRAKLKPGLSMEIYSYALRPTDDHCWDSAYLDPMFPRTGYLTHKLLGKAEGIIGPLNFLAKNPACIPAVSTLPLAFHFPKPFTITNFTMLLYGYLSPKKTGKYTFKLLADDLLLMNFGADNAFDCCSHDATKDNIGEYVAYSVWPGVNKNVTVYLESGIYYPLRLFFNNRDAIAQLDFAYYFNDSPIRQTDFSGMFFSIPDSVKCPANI"
  Recorded number: -0.354
- Binder: "FimD (Bordetella pertussis) (protein) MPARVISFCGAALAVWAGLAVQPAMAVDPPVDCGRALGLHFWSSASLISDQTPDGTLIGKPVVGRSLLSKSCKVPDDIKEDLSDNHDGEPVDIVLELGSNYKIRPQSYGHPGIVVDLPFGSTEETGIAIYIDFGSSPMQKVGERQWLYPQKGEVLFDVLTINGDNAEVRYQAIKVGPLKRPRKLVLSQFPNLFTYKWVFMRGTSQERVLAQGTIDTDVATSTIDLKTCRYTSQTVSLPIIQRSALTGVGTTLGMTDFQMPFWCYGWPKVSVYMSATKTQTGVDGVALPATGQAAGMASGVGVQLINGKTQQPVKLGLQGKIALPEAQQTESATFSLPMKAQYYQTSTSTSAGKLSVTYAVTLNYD"
  Recorded number: -0.107
- Binder: "Mg3lysM (Mycosphaerella graminicola) (protein) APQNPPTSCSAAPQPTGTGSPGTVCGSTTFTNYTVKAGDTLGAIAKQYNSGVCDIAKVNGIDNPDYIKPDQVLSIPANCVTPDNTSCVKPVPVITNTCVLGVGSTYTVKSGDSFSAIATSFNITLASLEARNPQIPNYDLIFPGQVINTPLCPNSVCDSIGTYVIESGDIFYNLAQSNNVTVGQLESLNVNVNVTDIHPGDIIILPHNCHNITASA"
  Recorded number: -0.088
- Binder: "Epf (Streptococcus pyogenes) (protein) GDHGPEFNGVMVVKAAEAEELPDDLMNFKGTWEVSADGSSGRFFSKGATDSYVFHLIPAKDVKKPGWREHNEVKDSYIKIDKQSIAARYKTSTTAPYSVAFKVNTKSLIKDHDYKITFEQGQIASGITVDYRIGSAFNKTTDDSFKISDESKYASNVKIEGEEQGFKQREQGDKTISFRTLKEGPMSLVLLSKVEKKPQGDLDVEFKNLKIIDVTNPSQLDKGVAYVGNKNVQLTLKSDDGRTNFEGDEISLFNSRGELLQTVTVTKDQQNPISITLSEDQAKSLKNKEKLKVSIKQKQSKKTSKDFFFEVGIDPKVEAKQKEKLLELDKVKKQIEDSINGDAWLPEKPVDLQGDHGLSAWSHPQFEK"
  Recorded number: -0.643
